Source of measurements: paper PMC9352680

Below, each entry is listed alongside its reported pKd.
- measuredOn: T1, PUF4 RNA-binding domain (Saccharomyces cerevisiae, UniProt P25339 537-888)
- T1 sequence: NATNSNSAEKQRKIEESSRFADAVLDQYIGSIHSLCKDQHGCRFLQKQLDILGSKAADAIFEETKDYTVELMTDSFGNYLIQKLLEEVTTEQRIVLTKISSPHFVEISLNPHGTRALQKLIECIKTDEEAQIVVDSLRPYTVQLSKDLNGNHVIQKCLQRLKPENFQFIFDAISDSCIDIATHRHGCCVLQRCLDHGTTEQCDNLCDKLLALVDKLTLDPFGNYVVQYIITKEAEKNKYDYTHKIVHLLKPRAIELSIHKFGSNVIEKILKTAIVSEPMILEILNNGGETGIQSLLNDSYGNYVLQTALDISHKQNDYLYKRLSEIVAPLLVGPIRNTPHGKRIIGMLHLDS
- protocolSummary: Mg; RNA-MaP; 20 mM Na-HEPES pH 7.4, 30 mM KOAc, 0.75 mM MgCl2, 0.1% Tween-20, 5% glycerol, 0.1 mg/mL BSA, 2 mM DTT; 25 C; 0.0125-409.6 nM protein
- conditionInfo: tags: N-His6-TEV cleaved; C-SNAP kept, Cy3B-labelled; label: tethered on chip by stalled RNA polymerase
Lab note — pKd values are minus log10 of concentrations in M.

Observe how each entry below is paired with its result.
binder	endpointValue
Ie_S4_P3E.2_K3.1_C3.2_H3.1_A3.1_F3.1_[+8CC]_T3.2 (ssRNA) RNA: UUUGACAACUGAUCGUUCUUUCUCUUGUAUAUACCUAUUCUUUCUCGAUCAGUUGUCUUU	8.54
Ie_S4_P4E.1_K4.1_C4.1_H4.1_A4.1_F4.1_[+8TCC]_T4.1 (ssRNA) RNA: UUUGACAACUGAUCGUUCUUUCUUGUAUAUUUCCAUUCUUUCUCGAUCAGUUGUCUUU	8.36

Please turn your attention to the following entry.
# pKd (binder: Ib_S4_P3E.1_K3.1_C3.1_H3.1_A3.1_[A6T]_F3.1_[A8C]_T3.1 (ssRNA) RNA: UUUGACAACUGAUCGUUCUUUCUUGUAUUUCUUCUUUCUCGAUCAGUUGUCUUU ) is 7.55
